- Protocol notes: in vitro
- Experimental conditions: human, keratinocyte monolayer
Endpoint name: fold induction at 48 h

### Prompt Entry under review: CCCCCCCCCCCCOS(=O)(=O)[O-].[Na+] [Sodium Dodecyl Sulfate] . Reported fold induction at 48 h?
### Response ~2.5

====

- Protocol notes: MTT assay of cell viability in human skin cell co-cultures on nylon mesh
- Type: cell-based
- Experimental conditions: human, huk/f skin cell co-culture; concentration w/v giving 50% decrease in MTT dye uptake vs untreated control; HuK/F, 48 hours; read-out: MTT-50 Endpoint (Concentration w/v)
Endpoint name: CC50 at 48 h (µg/mL)
All answers are understood in µg/mL, so give the number only.

### Prompt Entry under review: CCCCCCCCCCCCOS(=O)(=O)[O-].[Na+] [Sodium Dodecyl Sulfate] . Reported CC50 at 48 h?
### Response 57
